Here, compounds appear alongside pIC50 reported for UniProt:P52333 in the literature.
Sequence (P52333 whole entry): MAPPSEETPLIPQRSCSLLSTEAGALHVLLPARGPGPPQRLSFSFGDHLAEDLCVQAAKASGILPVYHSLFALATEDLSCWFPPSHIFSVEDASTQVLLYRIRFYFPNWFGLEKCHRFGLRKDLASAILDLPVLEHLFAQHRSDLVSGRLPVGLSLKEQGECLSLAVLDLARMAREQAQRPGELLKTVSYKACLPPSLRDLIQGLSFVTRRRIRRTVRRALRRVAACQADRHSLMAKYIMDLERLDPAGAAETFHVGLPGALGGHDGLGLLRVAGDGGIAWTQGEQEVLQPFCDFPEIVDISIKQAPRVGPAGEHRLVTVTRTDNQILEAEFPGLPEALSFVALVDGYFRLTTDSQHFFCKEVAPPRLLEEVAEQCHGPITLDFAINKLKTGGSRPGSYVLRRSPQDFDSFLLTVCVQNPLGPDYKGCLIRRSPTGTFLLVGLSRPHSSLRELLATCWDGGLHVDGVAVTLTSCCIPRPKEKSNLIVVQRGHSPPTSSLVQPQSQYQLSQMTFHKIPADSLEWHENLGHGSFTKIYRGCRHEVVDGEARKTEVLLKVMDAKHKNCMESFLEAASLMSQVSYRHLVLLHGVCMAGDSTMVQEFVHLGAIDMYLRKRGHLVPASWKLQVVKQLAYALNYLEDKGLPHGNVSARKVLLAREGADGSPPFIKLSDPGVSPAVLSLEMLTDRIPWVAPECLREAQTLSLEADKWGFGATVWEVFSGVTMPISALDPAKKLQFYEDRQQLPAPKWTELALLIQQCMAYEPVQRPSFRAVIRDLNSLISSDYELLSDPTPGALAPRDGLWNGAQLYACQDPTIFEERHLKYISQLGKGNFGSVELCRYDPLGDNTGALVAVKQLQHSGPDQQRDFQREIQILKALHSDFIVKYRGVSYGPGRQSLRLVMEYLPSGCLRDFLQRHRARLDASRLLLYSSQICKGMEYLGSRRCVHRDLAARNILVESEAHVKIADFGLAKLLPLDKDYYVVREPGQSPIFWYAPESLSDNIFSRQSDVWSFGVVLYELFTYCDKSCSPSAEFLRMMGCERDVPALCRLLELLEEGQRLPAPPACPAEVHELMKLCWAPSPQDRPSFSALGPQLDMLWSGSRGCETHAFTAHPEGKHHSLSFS
pIC50: −log10 of the molar value.

Input line: Would you kindly share the measured pIC50 for `Cn1c(-c2cn([C@H]3CCNC[C@@H]3F)nn2)nc(-c2ccc(F)cc2)c1-c1ccncc1` ?
Output line: < 4.00

Input line: Okay, and `Cn1c(-c2cn([C@@H]3[C@@H](O)[C@H](O)[C@@H](CO)O[C@H]3O)nn2)nc(-c2ccc(F)cc2)c1-c1ccncc1` ?
Output line: < 4.00

Input line: Thanks! And COc1cnc2[nH]cc(-c3nncc(NC(C(=O)NCC(C)(C)C)C(C)C)n3)c2c1 (stereo not drawn) ?
Output line: ≥ 8.00

Input line: What do we get for `CONC(=O)c1ccc(C)c(Nc2nc(N(C)CC(C)(C)C)nc(N3CCCN(C)CC3)n2)c1` ?
Output line: < 5.00

Input line: Repeat for the following compound: `CC(=O)Nc1ccc(-c2cc(C)nc(Nc3ccc(N4CCOCC4)cc3)n2)cc1`
Output line: < 6.01

Input line: Please answer likewise for `CCC(CC)Cn1ccc2cnc(Nc3cnn(CC(=O)O[C@@H]4C[C@@H](C(=O)OC)N(C)C4)c3)nc21`
Output line: > 7.00

Input line: Also `COc1ccccc1C(=O)Nc1ccc(C)c(C(=O)Nc2cnc(Nc3ccc(N4CCN(C)CC4)cc3)nc2)c1` , if possible.
Output line: < 4.60

Input line: Okay, and `C[C@H](Nc1nccc(-c2c(-c3ccc(F)cc3)nc3nc(N)ccn23)n1)c1ccccc1` ?
Output line: < 4.00
